Recorded values, source ChEMBL document CHEMBL4513216.

test system: Plasmodium berghei; test: Screen against P. berghei liver stage (PbLuc), transformed with Luciferase, at 10uM; assay type: functional, HepG2; conditions: tested at 10 uM
In all, about 69,000 compounds went through this assay and about 8,600 (12%) showed an effect of 50% or more. The full list was thinned out, with strong results kept by preference.
We use 30% as the dividing line for INHIBITION: on or above the line is yes, below is no.

| compound | class.label |
| --- | --- |
| CCS(=O)(=O)NCc1cc(Br)c(OC)c(OC)c1 | yes |
| Cc1cc(S(=O)(=O)N2CCCc3ccccc32)sc1C(=O)O | yes |
| CS(=O)(=O)N1CCc2ccc(=O)n(CCN3CCCC3)c2CC1 | yes |
| Cc1noc2ncc(C(=O)N3CCCC(n4ccnc4C)C3)cc12 (stereo unspecified) | yes |
| Cn1nc(C(=O)N2CCOCC2)cc1C(=O)Nc1ccc(Cl)cc1Cl | no |

Now look at this one.
Check if INHIBITION >= 30% (inclusive). Item: COc1ccc(S(=O)(=O)NCCCc2nnc3nc(C)cc(C)n23)cc1
yes
